system: RPMI-8226 leukemia; test: NCI-60 one-dose screen, 48 h (100 = growth as untreated, 0 = no growth, -100 = all killed); conditions: 10 µM
Compounds without any hit were thinned out: in the full panel of roughly 83,000, 20% have a hit.
Classify as follows. Reported growth greater than or equal to 40%: t. Reported growth below: f.

As a guide, the following entries are already answered.
| compound | labelValue |
| --- | --- |
| Nc1cc2[nH]c(=O)c3ccccc3c2cc1Br | t |
| CCCCCCCCCCCCCCNc1nc(CO)ncc1-c1ccc(C(F)(F)F)cc1 | t |
| CC(=O)N(CC(O)CO)c1c(I)c(C(=O)NCCO)c(I)c(C(=O)NCC(O)CO)c1I (centres undefined) | t |
| CCOc1ccc(/C=N\N2CCCCCC2)cc1OCC | t |
| CC(C)OC1=C(Cl)C(=O)c2ccccc2C1=O | f |

-- ask Evaluate COc1ccc(S(=O)(=O)ON=C2C=C(C)C(=O)C(C)=C2)cc1 : growth at minimum 40%?
-- reply f

-- ask Evaluate O=C(NCc1cccnc1)c1ccc([N+](=O)[O-])o1 : growth at minimum 40%?
-- reply t

-- ask Evaluate Clc1ccc2c(c1)C[C@H]1C[C@@H](c3cccs3)N2O1 : growth at minimum 40%?
-- reply t

* * *

test system: NCI/ADR-RES ovarian; test: NCI-60 one-dose screen, 48 h; settings: 10 µM unless noted
Compounds without any hit were thinned out: in the full panel of roughly 83,000, 20% have a hit. The source made the active and inactive calls. Rule for the calls: active = growth percent below 10; inactive = the rest.
Lab note: assign the record to one of 1 for active, 0 for inactive

As a guide, the following entries are already answered.
| compound | labelValue |
| --- | --- |
| CCCOC(=O)c1ccc2c(c1)[N+](=O)C(C(=O)c1ccccc1)=C(C(F)(F)F)[N+]2=O | 1 |
| COc1ccc(NS(=O)(=O)c2ccc(-c3cnc(C4CC4)o3)cc2)cc1 | 0 |
| Cc1nc2nc(C(F)(F)F)[nH]c2nc1C | 0 |
| Cc1nc2cc(Nc3nc(NCCO)nc(Nc4ccc(F)cc4)n3)ccc2n1Cc1ccccc1 | 0 |
| Cc1c(C(=O)Nc2nc(-c3ccccc3)cs2)nnn1-c1cccc2ccccc12 | 0 |

Read the next record carefully.
-- ask What was the test verdict on O=C(C[Si](CC(=O)c1cccc(C(F)(F)F)c1)CC(=O)c1cccc(C(F)(F)F)c1)c1cccc(C(F)(F)F)c1 ?
-- reply 0

* * *

// reported growth for each item listed
system: RXF 393 renal; experiment: NCI-60 one-dose screen, 48 h (100 = growth as untreated, 0 = no growth, -100 = all killed); conditions: 10 µM unless noted
About 83,000 compounds went through this panel and 20% of them were active in at least one assay; those are over-represented in the sample as a whole. Active and inactive are the calls of the source. Rule for the calls: active = growth percent below 10; inactive = the rest.

| molecule | targetDesc | resultValue |
| --- | --- | --- |
| CC[Si](CC)(CC)OC1[C@@H](O[Si](CC)(CC)CC)[C@@H](CNC(=O)NC)O[C@H]1n1cnc2c(NC(=O)Nc3ccccc3)ncnc21 (stereo partly drawn) | RXF 393 renal | 116% (inactive) |

-- ask State the recorded growth for this entry: Cc1nc2cc(Nc3nc(N4CCOCC4)nc(N4CCN(C)CC4)n3)ccc2n1Cc1ccccc1
-- reply 101% (inactive)

-- ask State the recorded growth for this entry: Cn1c2c(cc(S(=O)(=O)c3ccccc3)c1=O)CCc1c-2cnn1-c1cccc(Cl)c1
-- reply 93.4% (inactive)

-- ask State the recorded growth for this entry: O=[N+]([O-])c1ccc(C=C2C(Cl)=C(Cl)C(Cl)=C2Cl)cc1
-- reply 0.914% (active)

-- ask State the recorded growth for this entry: N#C/C(=C\c1ccc[nH]1)c1cc2ccccc2[nH]1
-- reply 92.5% (inactive)

-- ask State the recorded growth for this entry: Cc1nn(-c2ccccc2)c2nc3nc4c(c(N)c3c(-c3ccc(Cl)cc3)c12)CCCC4
-- reply 90.9% (inactive)

-- ask State the recorded growth for this entry: COc1ccc2nc(-n3nc(C)cc3C)c(-n3nc(C)cc3C)nc2c1
-- reply 104% (inactive)

-- ask State the recorded growth for this entry: CC1(C)CC(=O)C2=C(C1)Nc1cc3c(cc1C2c1ccc(F)cc1)OCO3 (stereo not drawn)
-- reply 82.3% (inactive)

-- ask State the recorded growth for this entry: Clc1ccc(C2=Nc3cccc4cccc(c34)N2)cc1Cl
-- reply -5.75% (active)

-- ask State the recorded growth for this entry: COc1nc2c(cc1S(=O)(=O)c1ccccc1)CCc1c-2cnn1-c1ccccc1Cl
-- reply 52.6% (inactive)

-- ask State the recorded growth for this entry: O=S(=O)(Nc1ncccn1)c1ccc(Nc2ccc3nnc(-c4ccncc4)n3n2)cc1
-- reply 118% (inactive)

-- ask State the recorded growth for this entry: O=C(Nc1ccccc1O)c1ccc(NS(=O)(=O)c2cccc3cccnc23)cc1
-- reply 69.8% (inactive)

-- ask State the recorded growth for this entry: O=c1nc(NO)[nH]c(=O)n1Cc1ccccc1
-- reply 94.8% (inactive)

-- ask State the recorded growth for this entry: CC(C)(C)[Si](C)(C)OC1[C@@H](O[Si](C)(C)C(C)(C)C)[C@@H](CNC(=O)NC(=O)C(F)(F)F)O[C@H]1n1cnc2c(NC(=O)Nc3ccccc3)ncnc21 (stereo partly drawn)
-- reply 104% (inactive)

-- ask State the recorded growth for this entry: O=c1c2c(=NCCN3CCCC3)cc3c(=O)n(CCCN4CCOCC4)c(=O)c4ccc(c(O)n1CCCN1CCOCC1)c2c4-3
-- reply -66.3% (active)

-- ask State the recorded growth for this entry: Cc1ccccc1-c1cc(-c2ccc(Br)s2)[nH]c(=O)c1C#N
-- reply 106% (inactive)

-- ask State the recorded growth for this entry: Nc1nc(-c2ccnc(Cl)c2)nn1-c1nc2ccccc2s1
-- reply 108% (inactive)

-- ask State the recorded growth for this entry: CCOC(=O)c1sc(NC(=O)CN2CCC(Cc3ccccc3)CC2)nc1C
-- reply 111% (inactive)

-- ask State the recorded growth for this entry: CCC(=O)Nc1nnc(Cc2ccc(OC)c(OC)c2)s1
-- reply -32.9% (active)

-- ask State the recorded growth for this entry: Cc1nc2ccc(Cl)cc2n1C
-- reply 101% (inactive)

-- ask State the recorded growth for this entry: CC(C)(C)[Si](C)(C)OC1[C@@H](CNC(=O)NC(=O)CCl)O[C@@H](n2cnc3c(N)ncnc32)[C@H]1O[Si](C)(C)C(C)(C)C (stereo partly drawn)
-- reply -13.3% (active)

-- ask State the recorded growth for this entry: COc1ccc(-c2nc(Nc3ccc(F)cc3)nc(Nc3ccc4c(c3)nc(C)n4Cc3ccccc3)n2)cc1
-- reply 35.7% (inactive)

-- ask State the recorded growth for this entry: Brc1ccccc1Nc1ccc2nnc(-c3ccncc3)n2n1
-- reply 101% (inactive)

* * *

// reported growth for each item listed
tested on: MCF7 breast; experiment: NCI-60 one-dose screen, 48 h (100 = growth as untreated, 0 = no growth, -100 = all killed); conditions: 10 µM unless noted
The panel holds about 83,000 compounds, 20% with a hit somewhere; the sample as a whole holds those more often. Active and inactive are the calls of the source. The calls were made as follows: active = growth percent below 10; inactive = the rest.

# example entries with known answers
| structureSmilesString | growth |
| --- | --- |
| COc1ccc(/C=C2\CN(Cc3cn(CCCNc4ccnc5cc(Cl)ccc45)nn3)C/C(=C\c3ccc(OC)cc3)C2=O)cc1 | 43.5% (inactive) |
| O=c1oc2ccccc2cc1-c1csc(N=Nc2c(O)[nH]c3ccc(Br)cc23)n1 | 94% (inactive) |

-- ask Under MCF7 breast: growth value of COc1cc(-c2nc(SC(C)C)nc(Nc3cccc(C)c3)c2C#N)cc(OC)c1OC ?
-- reply 98.1% (inactive)

* * *

system: CCRF-CEM leukemia; experiment: NCI-60 one-dose screen, 48 h; details: 10 µM unless noted
This is part of a sample that, as a whole, favours compounds with a hit. Of some 83,000 tested, about 20% had one in any assay. Active and inactive are the calls of the source. The calls were made as follows: active = growth percent below 10; inactive = the rest.
Lab note: assign the record to one of active, inactive

-- ask What was the test verdict on O=C1/C(=C/c2ccc(Cl)cc2)CN(Cc2cn(CCCNc3ccnc4cc(Cl)ccc34)nn2)C/C1=C\c1ccc(Cl)cc1 ?
-- reply active

-- ask What was the test verdict on CC(C)NCC(O)COc1ccc(CCOCC2CC2)cc1 (stereo unspecified) ?
-- reply inactive

-- ask What was the test verdict on O=C(NCc1ccc(F)cc1)C1CN(c2ccc(Cl)cc2)N(c2ccc(Cl)cc2)C1=O (stereo unspecified) ?
-- reply inactive

-- ask What was the test verdict on CCN(c1ccc(C(=O)N2CCN(c3ccccc3)CC2)cc1)S(C)(=O)=O ?
-- reply inactive

-- ask What was the test verdict on COc1cc(OCc2cccc(-c3ccc(C(O)c4nccs4)cc3)c2C)cc(OC)c1C=O (stereo unspecified) ?
-- reply inactive

-- ask What was the test verdict on O=C1Nc2ccc(Cl)cc2/C1=N/N=C(c1ccccc1)c1ccccc1 ?
-- reply inactive

-- ask What was the test verdict on COc1ccc(-c2nc(Nc3ccc(F)cc3)nc(Nc3ccc4c(c3)nc(C)n4Cc3ccccc3)n2)cc1 ?
-- reply active

-- ask What was the test verdict on COc1c(O)c2c3c(c1OC)-c1ccccc1CC3N(S(=O)(=O)c1ccc(C)cc1)CC2 (stereo unspecified) ?
-- reply active

-- ask What was the test verdict on O=C(N/N=C/c1ccc(F)cc1)c1[nH]c2ccc(I)cc2c1-c1ccccc1 ?
-- reply inactive

-- ask What was the test verdict on COc1cccc(Nc2nc(NCCO)c3ccccc3n2)c1 ?
-- reply inactive

-- ask What was the test verdict on Cc1nn(-c2ccccc2)c2nc3nc4c(c(N)c3c(-c3ccc(Cl)cc3)c12)CCCC4 ?
-- reply inactive
